# run_description: Equilibrium solubility in water and bio-relevant media (SGF, FaSSIF, FeSSIF)
# condition_summary: final solution in FaSSIF
Could you label it t if measured pH is 4 or higher, and f otherwise?

Example results:
Q. # check: pH of CC(C)[C@@H]1[C@H]2CC[C@H](C2)[C@H]1N.O=C(O)/C=C\C(=O)O [Maleate Type A] is greater than or equal to 4
A. t

Q. # check: pH of CC(C)[C@@H]1[C@H]2CC[C@H](C2)[C@H]1N.O=C(O)CCC(=O)O [Succinate Type A] is greater than or equal to 4
A. t

Q. # check: pH of CC(C)[C@@H]1[C@H]2CC[C@H](C2)[C@H]1N.O=C(O)/C=C/C(=O)O [Fumarate Type A] is greater than or equal to 4
A. f

Q. # check: pH of CC(C)[C@@H]1[C@H]2CC[C@H](C2)[C@H]1N (racemic) [Phosphate Type B] is greater than or equal to 4
A. t

Q. # check: pH of CC(C)[C@@H]1[C@H]2CC[C@H](C2)[C@H]1N [L-malate Type C] is greater than or equal to 4
A. t

Now look at this entry.
Q. # check: pH of CC(C)C1C2CCC(C2)C1N.Cl (racemic) [HCl salt Type A, reference compound] is greater than or equal to 4
A. t

---

# run_description: physchem
# condition_summary: pH 1.8, simulated gastric fluid, thermodynamic from solid, SGF solubility
assay_metric: solubility

Q. Read the entry CC(C)[C@@H]1[C@H]2CC[C@H](C2)[C@H]1N.O=C(O)CCC(=O)O [Succinate Type A] and write its reported solubility.
A. > 28 mg/mL

---

# run_description: Physical and chemical stability on storage (LC-MS and XRPD)
# Assay type: physicochemical
# condition_summary: BRD4780 salt solid form; 25/60% RH and 40 C./75% RH, 1 week; solid form change (XRPD)
assay_metric: Form change?

Q. Read the entry CC(C)C1C2CCC(C2)C1N.Cl (racemic) [HCl salt Type A, reference compound] and write its reported Form change?.
A. No change

Q. Read the entry CC(C)[C@@H]1[C@H]2CC[C@H](C2)[C@H]1N.O=C(O)/C=C\C(=O)O [Maleate Type A] and write its reported Form change?.
A. No change

Q. Read the entry CC(C)[C@@H]1[C@H]2CC[C@H](C2)[C@H]1N.O=C(O)/C=C/C(=O)O [Fumarate Type A] and write its reported Form change?.
A. No change

---

# run_description: TGA and DSC thermal characterization of salts
# Assay type: physicochemical
# condition_summary: summary grade Good/Moderate/Poor
assay_metric: TGA/DSC (matrix of results from solid form characterization)

# count of solved cases: 5
Q. Read the entry CC(C)C1C2CCC(C2)C1N.Cl (racemic) [HCl salt Type A, reference compound] and write its reported TGA/DSC (matrix of results from solid form characterization).
A. Good

Q. Read the entry CC(C)[C@@H]1[C@H]2CC[C@H](C2)[C@H]1N.O=C(O)/C=C\C(=O)O [Maleate Type A] and write its reported TGA/DSC (matrix of results from solid form characterization).
A. Good

Q. Read the entry CC(C)[C@@H]1[C@H]2CC[C@H](C2)[C@H]1N.O=C(O)CCC(=O)O [Succinate Type A] and write its reported TGA/DSC (matrix of results from solid form characterization).
A. Good

Q. Read the entry CC(C)[C@@H]1[C@H]2CC[C@H](C2)[C@H]1N.O=C(O)/C=C/C(=O)O [Fumarate Type A] and write its reported TGA/DSC (matrix of results from solid form characterization).
A. Good

Q. Read the entry CC(C)[C@@H]1[C@H]2CC[C@H](C2)[C@H]1N [L-malate Type C] and write its reported TGA/DSC (matrix of results from solid form characterization).
A. Poor

Alright, here's another molecule for you.
Q. Read the entry CC(C)[C@@H]1[C@H]2CC[C@H](C2)[C@H]1N (racemic) [Phosphate Type B] and write its reported TGA/DSC (matrix of results from solid form characterization).
A. Poor
